# tested system: Human alpha-thrombin (Homo sapiens (Human), UniProt P00734)
As shown below, each of these compounds has a reported IC50 value.

Cc1cc(F)cc2c1NCCC2C(=O)n1nc2c(c1N)CCOC2 (single isomer, unassigned): > 100 µM
CS(=O)(=O)N1CCc2nn(C(=O)C3CCNc4ccccc43)c(N)c2C1 (centres unmarked): > 70 µM
Nc1c2c(nn1C(=O)C1CCNc3ccc(F)cc31)CN(S(=O)(=O)C(F)F)CC2 (centres unmarked): 70 µM
CN(C)C(=O)N1CCc2c(nn(C(=O)C3CCNc4ccccc43)c2N)C1 (centres unmarked): > 80 µM
CS(=O)(=O)N1CCc2c(N)nn(C(=O)C3CCNc4ccc(C(F)(F)F)cc43)c2C1 (centres unmarked): > 70 µM
Cc1cc(F)cc2c1NCCC2C(=O)n1nc2c(c1N)CCN(S(C)(=O)=O)C2 (single isomer, unassigned): 9 µM
Nc1c2c(nn1C(=O)C1CCNc3ccc(F)cc31)CN(S(=O)(=O)C1CC1)CC2 (centres unmarked): > 80 µM
CCN1CCc2c(nn(C(=O)C3CCNc4ccc(F)cc43)c2N)C1 (centres unmarked): > 100 µM
CC1(C)CC(C(=O)n2nc3c(c2N)CCN(S(C)(=O)=O)C3)c2ccccc2N1 (centres unmarked): 45 µM
CS(=O)(=O)N1CCc2c(nn(C(=O)C3CCNc4ccc(-c5ccccc5)cc43)c2N)C1 (centres unmarked): 17 µM

Task: Could you share which IC50 value was measured for CC(C)CN1CCc2c(nn(C(=O)C3CCNc4ccc(F)cc43)c2N)C1 (centres unmarked) ?
Output: > 100 µM

Task: And the next one, Cc1cccc2c1NCC[C@@H]2C(=O)n1nc2c(c1N)CCOC2 (single isomer, unassigned) ?
Output: > 150 µM

Task: And the next one, CC(C)(C)S(=O)(=O)N1CCc2c(nn(C(=O)C3CCNc4ccc(F)cc43)c2N)C1 (centres unmarked) ?
Output: > 100 µM

Task: And the next one, CS(=O)(=O)N1CCc2c(nn(C(=O)C3CCNc4c(F)cccc43)c2N)C1 (centres unmarked) ?
Output: 25 µM

Task: And the next one, "CC(=O)N1CCc2c(nn(C(=O)c3cccc4[nH]c(C)cc34)c2N)C1" ?
Output: > 50 µM

Task: And the next one, CCN1CCc2c(nn(C(=O)[C@H]3CCNc4ccc(F)cc43)c2N)C1 (single isomer, unassigned) ?
Output: > 75 µM

Task: And the next one, Nc1c2c(nn1C(=O)C1CCNc3ccccc31)CN(S(=O)(=O)c1ccccc1)CC2 (centres unmarked) ?
Output: > 100 µM

----------
Reported values: pIC50 for Human FXIIa (Homo sapiens (Human)), one per item.
pIC50: −log10 of the molar value.
result type: pIC50

The examples below pair each entry with its known result.
CN1CCc2nn(C(=O)C3CCCc4[nH]ccc43)c(N)c2C1 (centres unmarked): 5.07
COc1cccc2c1NCCC2C(=O)n1nc2c(c1N)CCN(S(C)(=O)=O)C2 (centres unmarked) [Example 61]: 7.00

I: CCc1cc(C)c2c(c1)C(C(=O)n1nc3c(c1N)CCN(S(C)(=O)=O)C3)CCN2 (single isomer, unassigned) [Example 69]
II: CS(=O)(=O)N1CCc2c(nn(C(=O)C3CCNc4ncccc43)c2N)C1 (centres unmarked)
Task: Given the listed records, identify the one among I and II with higher pIC50. Label of pick, please.
Output: I
(I: 8.00, II: 5.77)
